Data origin, for the record: the supplement of paper PMC10065799

study system: FGFR1 (UniProt P11362)
Sequence (P11362 whole entry, looked up): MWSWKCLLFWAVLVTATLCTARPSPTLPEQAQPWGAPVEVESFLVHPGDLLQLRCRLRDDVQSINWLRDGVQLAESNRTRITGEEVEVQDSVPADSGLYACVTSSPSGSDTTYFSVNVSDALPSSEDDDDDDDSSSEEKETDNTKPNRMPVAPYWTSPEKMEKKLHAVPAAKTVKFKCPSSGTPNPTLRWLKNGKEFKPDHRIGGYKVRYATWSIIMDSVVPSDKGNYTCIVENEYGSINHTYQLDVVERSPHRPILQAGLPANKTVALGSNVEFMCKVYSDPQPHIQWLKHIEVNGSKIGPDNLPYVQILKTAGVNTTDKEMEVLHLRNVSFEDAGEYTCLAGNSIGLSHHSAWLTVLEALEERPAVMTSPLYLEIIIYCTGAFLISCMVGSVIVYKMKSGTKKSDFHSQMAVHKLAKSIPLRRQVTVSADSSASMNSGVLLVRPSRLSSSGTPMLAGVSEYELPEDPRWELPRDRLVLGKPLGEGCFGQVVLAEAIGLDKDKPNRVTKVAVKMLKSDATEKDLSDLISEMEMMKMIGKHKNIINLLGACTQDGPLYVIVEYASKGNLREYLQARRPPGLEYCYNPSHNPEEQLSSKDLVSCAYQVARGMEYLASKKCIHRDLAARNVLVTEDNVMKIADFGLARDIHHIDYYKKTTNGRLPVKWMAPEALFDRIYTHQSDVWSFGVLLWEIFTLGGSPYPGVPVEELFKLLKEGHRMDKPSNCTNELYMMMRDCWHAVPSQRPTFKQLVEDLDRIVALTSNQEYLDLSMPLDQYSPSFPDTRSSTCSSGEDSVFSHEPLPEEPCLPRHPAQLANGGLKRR
test name: phosphorylation enrichment, bacterial display (enrichment ratio); higher = better substrate or ligand; peptides without Tyr show the background;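 further: 11-residue human phosphosite peptides and single-mutation variants displayed on the E. coli surface, counted by deep sequencing, each peptide's frequency after selection divided by its frequency in the unselected input library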;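 further: frequency after pTyr selection over input frequency; kinase dosed for 20-30% of maximal phosphorylation in three min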
Each item that follows carries a reported phosphorylation enrichment.
Please give the numeric answer without any surrounding text.

residue string | value measured
EFITRYIASLK [PSMA7_Y110_YF] | 0.419
SVVVPYEPPEL [TP53_Y220_V225L] | 0.459
EKRDAYVSRLN [GSR_Y150] | 0.418
NNIDFYKKTTN [FGFR2_Y657_YF] | 0.338
FTRNYYVQAVL [CYBA_Y88_R90Q] | 1.59

Lab request: please report phosphorylation enrichment under test system FGFR1 (UniProt P11362) for CEHRGCLFLAI [TEK_Y897_Y897C_YF]
0.455

Please do the same for FTHSDYQFGQR [PKP2_Y166_S169G_YF] as well.
0.465

###

The entries below are paired with their reported phosphorylation enrichment.
study system: Jak2 (UniProt O60674)
Sequence (O60674 whole entry, looked up): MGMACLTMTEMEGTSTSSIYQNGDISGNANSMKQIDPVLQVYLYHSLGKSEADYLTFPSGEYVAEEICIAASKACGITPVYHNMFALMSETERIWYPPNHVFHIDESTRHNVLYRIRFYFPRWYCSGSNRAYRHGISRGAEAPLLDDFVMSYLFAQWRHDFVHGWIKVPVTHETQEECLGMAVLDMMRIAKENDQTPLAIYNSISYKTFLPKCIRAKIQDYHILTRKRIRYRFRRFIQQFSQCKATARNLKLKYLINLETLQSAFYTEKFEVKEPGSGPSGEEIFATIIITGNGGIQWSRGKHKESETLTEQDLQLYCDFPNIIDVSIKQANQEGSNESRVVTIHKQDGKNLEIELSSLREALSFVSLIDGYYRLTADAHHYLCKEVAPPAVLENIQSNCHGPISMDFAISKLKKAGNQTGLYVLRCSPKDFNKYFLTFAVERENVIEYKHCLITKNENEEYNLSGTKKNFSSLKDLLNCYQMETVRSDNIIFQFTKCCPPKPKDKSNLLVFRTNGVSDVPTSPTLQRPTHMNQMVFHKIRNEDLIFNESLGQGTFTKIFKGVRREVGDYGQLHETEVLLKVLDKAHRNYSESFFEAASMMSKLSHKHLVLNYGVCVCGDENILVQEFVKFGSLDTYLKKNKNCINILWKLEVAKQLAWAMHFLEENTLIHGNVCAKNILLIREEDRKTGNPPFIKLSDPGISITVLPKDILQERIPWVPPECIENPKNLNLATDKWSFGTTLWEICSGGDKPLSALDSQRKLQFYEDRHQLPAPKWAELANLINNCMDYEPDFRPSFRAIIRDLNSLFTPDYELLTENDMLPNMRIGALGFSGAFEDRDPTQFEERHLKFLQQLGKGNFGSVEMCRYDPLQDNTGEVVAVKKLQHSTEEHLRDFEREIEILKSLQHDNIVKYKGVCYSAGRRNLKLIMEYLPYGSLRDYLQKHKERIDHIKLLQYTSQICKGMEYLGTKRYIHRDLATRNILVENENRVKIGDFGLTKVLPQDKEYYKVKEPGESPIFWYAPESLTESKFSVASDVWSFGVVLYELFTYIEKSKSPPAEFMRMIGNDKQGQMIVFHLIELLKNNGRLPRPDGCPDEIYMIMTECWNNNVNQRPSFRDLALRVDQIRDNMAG
test name: phosphorylation enrichment, bacterial display (enrichment ratio); higher = better substrate or ligand; peptides without Tyr show the background
Provide a numeric answer; units are not to be included.

residue string | outcome measure | value measured
LHQSTYQRYDV [SLC7A14_Y693] | phosphorylation enrichment | 0.545

Would you kindly look at the next entry?
Bench note: what phosphorylation enrichment did SVTCTYTPALN [TP53_Y126_S127T] show?
1.24

###

System: c-Src
test name: phosphorylation enrichment, bacterial display (enrichment ratio); higher = better substrate or ligand; peptides without Tyr show the background
Binary classification by phosphorylation enrichment, with 0.5 as an inclusive lower bound for y; all other cases are n.

Examples from the recorded data:
residue string | qualitative label
TFAVSYLPDMS [FLNC_Y1602_T1599A_YF] | n
YRAVKYLQMVG [AVPR2_Y117_C112Y] | n
PLKFLYPNIDR [STAT1_Y668_K673R_YF] | y
KTDKKYLMIEE [BAG3_Y451] | y
KLCHLYQDHMQ [WNT5A_Y86] | y
MTYVFYRENLR [NLRP14_Y443] | y
FGEFRYRSVIK [CFTR_Y517_D513G_YF] | n
QIGRKYKKVRF [F8_Y442_R437Q] | y

# check: phosphorylation enrichment of IGMLIYFARKA [VCAM1_Y718_I716L] is greater than or equal to 0.5
n

Further, for RRSQSYNPTSG [PLEKHA2_Y185_I186N] ?
y

Can you handle GGYNNYGYGSD [HNRNPH3_Y159_N163S] next?
n

Query PDGHEYIYVDP [PDGFRA_Y572] next
y

One more sequence: RVILRYVNPGT [LAMA3_Y791]
n

Input KAPPTYDTVLQ [CYP3A4_Y347]
y

Entry to check: PTYKHYANSTQ [SLC12A3_Y70_E68K]
n

Now this one: TEDAEYDVQSK [PTCHD3_Y335_P333A]
y

Repeat for the following sequence: YSIDHYLGKEM [G6PD_Y202_R198S]
y

Next up: RELGEYGLQAF [ALDH2_Y497_YF]
y

// repeat for PQAVRYIFTID [DCX_Y103_G100A_YF] and report
n

And what about the sequence KALKQYRASPS [DDX27_Y763_G766S] ?
n

What do we get for TQKLAYVELQQ [CENPF_Y700_M701V] ?
y
